Origin of measurements: patent US6509163B1

# tested_target: hP2X7 receptor (Homo sapiens, UniProt Q99572)
# Construct: a clone containing the complete open reading frame of the hP2X7 receptor was constructed
# Sequence (Q99572 1-595): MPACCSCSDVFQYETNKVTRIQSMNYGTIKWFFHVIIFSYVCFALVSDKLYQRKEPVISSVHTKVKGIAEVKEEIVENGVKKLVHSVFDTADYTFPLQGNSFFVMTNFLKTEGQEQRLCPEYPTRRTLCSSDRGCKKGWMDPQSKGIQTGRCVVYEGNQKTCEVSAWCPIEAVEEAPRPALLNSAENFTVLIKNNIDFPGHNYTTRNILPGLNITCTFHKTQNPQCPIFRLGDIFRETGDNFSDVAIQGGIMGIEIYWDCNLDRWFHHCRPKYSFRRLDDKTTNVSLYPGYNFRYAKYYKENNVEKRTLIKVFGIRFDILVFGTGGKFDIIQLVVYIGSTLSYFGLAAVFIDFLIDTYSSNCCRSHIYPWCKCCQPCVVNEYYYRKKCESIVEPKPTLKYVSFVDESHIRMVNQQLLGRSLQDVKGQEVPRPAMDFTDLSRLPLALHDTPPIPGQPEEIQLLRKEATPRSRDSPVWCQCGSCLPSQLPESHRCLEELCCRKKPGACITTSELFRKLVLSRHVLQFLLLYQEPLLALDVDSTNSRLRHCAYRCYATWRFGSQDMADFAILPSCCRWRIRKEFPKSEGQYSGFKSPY
# assay_explanation: Whole-cell recordings in HEK293 cells transiently transfected with hP2X7 receptors (Example 3)
# experimental_setup: currents evoked by 300 μM BzATP; read-out: concentration of magnesium causing half-maximal inhibition of the current
metric_name: pIC50
As a rule, pIC50 stands for the negative log10 of the concentration, concentration in M.

query: What measured pIC50 goes with [Mg+2] ?
result: 3.67

---

EC50 reference
# tested_target: P2X7 receptor (Rattus norvegicus, UniProt Q64663)
# Construct: yielding a construct that encoded the entire P2X7 protein; expressed in transfected cells
# Sequence (Q64663 1-595): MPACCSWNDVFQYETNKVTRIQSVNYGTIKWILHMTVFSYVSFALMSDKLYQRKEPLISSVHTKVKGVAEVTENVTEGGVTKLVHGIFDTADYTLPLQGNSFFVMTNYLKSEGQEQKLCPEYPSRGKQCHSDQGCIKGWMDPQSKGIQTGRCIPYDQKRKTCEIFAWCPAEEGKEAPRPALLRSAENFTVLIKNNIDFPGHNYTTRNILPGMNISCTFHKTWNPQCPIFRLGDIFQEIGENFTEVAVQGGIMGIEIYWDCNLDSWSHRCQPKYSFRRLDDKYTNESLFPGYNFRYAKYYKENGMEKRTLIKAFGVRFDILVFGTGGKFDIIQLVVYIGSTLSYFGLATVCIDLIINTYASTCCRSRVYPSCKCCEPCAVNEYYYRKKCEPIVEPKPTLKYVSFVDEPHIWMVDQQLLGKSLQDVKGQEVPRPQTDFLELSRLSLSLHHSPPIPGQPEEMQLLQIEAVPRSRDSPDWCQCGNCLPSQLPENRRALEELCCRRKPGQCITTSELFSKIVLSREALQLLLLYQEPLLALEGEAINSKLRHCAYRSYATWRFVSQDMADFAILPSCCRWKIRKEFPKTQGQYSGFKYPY
# assay_explanation: Whole-cell recordings of agonist-evoked currents in HEK293 cells transfected with rat P2X7 cDNA (Example 2)
# Assay type: cell-based
# experimental_setup: normal solution (2 mM CaCl2, 1 mM MgCl2), n=4; read-out: EC50 (half-maximal concentration) for current
Please state the figure in µM; there is no need to write the unit.

query: What measured EC50 goes with Nc1ncnc2c1ncn2[C@@H]1O[C@H](COP(=O)(O)OP(=O)(O)OP(=O)(O)O)[C@@H](O)[C@H]1O ?
result: 115

Could you now consider this next compound?
query: What measured EC50 goes with Nc1ncnc2c1ncn2[C@@H]1O[C@H](COP(=O)(O)OP(=O)(O)OP(=O)(O)O)[C@@H](OC(=O)c2ccc(C(=O)c3ccccc3)cc2)[C@H]1O ?
result: 7
